Test: Small angle X-ray scattering, critical aggregation concentration from fit
Format: physicochemical
Conditions: Table 2; 10-mers, SAXS at ESRF, model fit
Square brackets hold non-standard residues; d marks the D form. Peptide text beside a SMILES is read from it. N(4-Br-benzyl)Gly = O=C(O)CNCc1ccc(Br)cc1; N(4-F-Bzl)Gly = O=C(O)CNCc1ccc(F)cc1; Nphe = O=C(O)CNCc1ccccc1; Nlys = NCCCCNCC(=O)O
Measured CAC, listed per entry.

[
  {
    "COMPOUND": "NCCCCNCC(=O)N(CC(=O)N(CCCCN)CC(=O)N(CC(=O)N(CCCCN)CC(=O)N(CC(=O)N(CCCCN)CC(=O)N(CC(=O)N(CCCCN)CC(=O)N(CC(N)=O)Cc1ccc(F)cc1)Cc1ccccc1)Cc1ccc(F)cc1)Cc1ccccc1)Cc1ccc(F)cc1 [Compound 24] (H-[Nlys][N(4-F-Bzl)Gly][Nlys][Nphe][Nlys][N(4-F-Bzl)Gly][Nlys][Nphe][Nlys][N(4-F-Bzl)Gly]-NH2)",
    "CAC": ">5 mg/mL"
  }
]

Now consider a different compound.
CAC in this record for NCCCCNCC(=O)N(CC(=O)N(CCCCN)CC(=O)N(CC(=O)N(CCCCN)CC(=O)N(CC(=O)N(CCCCN)CC(=O)N(CC(=O)N(CCCCN)CC(=O)N(CC(N)=O)Cc1ccc(Br)cc1)Cc1ccccc1)Cc1ccc(Br)cc1)Cc1ccccc1)Cc1ccc(Br)cc1 [Compound 26] (H-[Nlys][N(4-Br-benzyl)Gly][Nlys][Nphe][Nlys][N(4-Br-benzyl)Gly][Nlys][Nphe][Nlys][N(4-Br-benzyl)Gly]-NH2) : >5 mg/mL

====

Experiment: Cell viability assay (MTS/PMS), HaCaT cell line
Type: cell-based
Details: human, text b151, read-out: IC50 (cytotoxicity, HaCaT)
Square brackets hold non-standard residues; d marks the D form. Peptide text beside a SMILES is read from it. Nspe = C[C@H](NCC(=O)O)c1ccccc1; Nlys = NCCCCNCC(=O)O
RECORDED_METRIC: IC50 at 1 h (µg/mL)
Please state the figure in µg/mL; there is no need to write the unit.

Record summary for C[C@@H](c1ccccc1)N(CC(N)=O)C(=O)CN(C(=O)CN(CCCCN)C(=O)CN(C(=O)CN(C(=O)CN(CCCCN)C(=O)CN(C(=O)CN(C(=O)CN(CCCCN)C(=O)CN(C(=O)CN(C(=O)CNCCCCN)[C@@H](C)c1ccccc1)[C@@H](C)c1ccccc1)[C@@H](C)c1ccccc1)[C@@H](C)c1ccccc1)[C@@H](C)c1ccccc1)[C@@H](C)c1ccccc1)[C@@H](C)c1ccccc1 [Peptoid 1, H-(NLys-Nspe-Nspe)4-NH2] (H-[Nlys][Nspe][Nspe][Nlys][Nspe][Nspe][Nlys][Nspe][Nspe][Nlys][Nspe][Nspe]-NH2) : reported IC50 at 1 h = 35
